- assay-target: UniProtKB P29275
- protocol-details: Cellular in vitro reporter gene test for A2b receptor activity (antagonism of NECA)
- condition-details: recombinant CHO-K1 cells, CRE-luciferase reporter, co-incubation with EC50 concentration of NECA, 3 hours
Reported pIC50 by item:
Scale explanation: pIC50 corresponds to minus log10 of a concentration expressed in moles per litre.

[[record]]
compound = "Cc1c(CN2CCNC2=O)sc2c1c(=O)n(C1CC1C)c(=O)n2CCOC(F)(F)F (single isomer, unassigned) [Example 262]"
measured_metric = "pIC50"
observed = 8.92

[[record]]
compound = "[2H]C([2H])(c1sc2c(c1C)c(=O)n(C1CC1)c(=O)n2CCOC)N1CCNC1=O"
measured_metric = "pIC50"
observed = 8.03

[[record]]
compound = "COC(=O)N=C1NCCN1Cc1sc2c(c1C)c(=O)n(C1CC1)c(=O)n2CC1CCCO1 (single isomer, unassigned) [Example 43]"
measured_metric = "pIC50"
observed = 7.92


--- query ---
Task: Report value: pIC50, system: UniProtKB P29275, compound: `COCCn1c(=O)n(C2(C)CCC2)c(=O)c2c(C)c(CN3CCNC3=NC#N)sc21`
Result: 6.64

----------
- assay-target: human adenosine A2b receptor (Homo sapiens, UniProt P29275)
- Sequence (P29275 whole entry): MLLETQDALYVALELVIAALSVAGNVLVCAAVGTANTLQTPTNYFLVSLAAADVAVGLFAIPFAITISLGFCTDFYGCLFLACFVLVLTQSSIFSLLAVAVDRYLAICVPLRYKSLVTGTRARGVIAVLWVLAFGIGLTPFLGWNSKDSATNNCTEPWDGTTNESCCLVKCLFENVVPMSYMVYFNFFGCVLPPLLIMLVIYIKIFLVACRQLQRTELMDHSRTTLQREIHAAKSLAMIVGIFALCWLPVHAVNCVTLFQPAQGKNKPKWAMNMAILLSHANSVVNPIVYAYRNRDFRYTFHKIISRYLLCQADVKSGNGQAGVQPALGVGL
- protocol-details: Cellular in vitro reporter gene test for A2b receptor activity (antagonism of NECA)
- condition-details: recombinant CHO-K1 cells, CRE-luciferase reporter, co-incubation with EC50 concentration of NECA, 3 hours
- Description: The identification of selective antagonists of the human adenosine A2b receptor and the quantification of the efficacy and selectivity of the compounds according to the invention was carried out with the aid of recombinant cell lines for the human adenosine receptors A1, A2a, A2b and A3. These cell lines were originally derived from an ovarepithelial cell of the hamster (Chinese Hamster Ovary, CHO-K1, American Type Culture Collection, Manassas, Va. 20108, USA). […]
Reported log10(IC50) by item:
All values: base-10 log of IC50 in nM.

See these solved cases before continuing.
[[record]]
compound = "COCCn1c(=O)n(C2(C)CCC2)c(=O)c2c(C)c(Cn3nc[nH]c3=O)sc21 [Example 143]"
measured_metric = "log10(IC50)"
observed = 2.94

[[record]]
compound = "COCCn1c(=O)n(C2CC(F)(F)C2)c(=O)c2c(C)c(Cn3nc[nH]c3=O)sc21 [Example 129]"
measured_metric = "log10(IC50)"
observed = 2.45

[[record]]
compound = "COCCn1c(=O)n(C2CCCC2)c(=O)c2c(C)c(CN3CCNC3=O)sc21 [Example 189]"
measured_metric = "log10(IC50)"
observed = 1.60


--- query ---
Task: Report value: log10(IC50), system: human adenosine A2b receptor (Homo sapiens, UniProt P29275), compound: Cc1c(Cn2cc[nH]c2=O)sc2c1c(=O)n(C1CC1)c(=O)n2CC1CC(F)(F)C1 [Example 205]
Result: 0.85

----------
- assay-target: human adenosine A2b receptor (Homo sapiens, UniProt P29275)
- protocol-details: Cellular in vitro reporter gene test for A2b receptor activity (antagonism of NECA)
- condition-details: recombinant CHO-K1 cells, CRE-luciferase reporter, co-incubation with EC50 concentration of NECA, 3 hours
measured-metric: log10(IC50) (log10 of the value in nM)
All values: base-10 log of IC50 in nM.

[[record]]
molecule = "Cc1c(Cn2nc[nH]c2=O)sc2c1c(=O)n(C1(C)CCC1)c(=O)n2CCC(F)(F)F"
measured_metric = "log10(IC50)"
observed = 2.41


Task: Please list log10(IC50) recorded for the molecule `COCCn1c(=O)n(C2CC3(CCC3)C2)c(=O)c2c(C)c(CN3CCNC(=O)C3=O)sc21`
Result: 1.43

Task: Please list log10(IC50) recorded for the molecule `COCCn1c(=O)n(C2CCC2)c(=O)c2c(C)c(CN3CCNC3=NC#N)sc21`
Result: 0.60

Task: Please list log10(IC50) recorded for the molecule `Cc1c(CN2CCNC2=O)sc2c1c(=O)n([C@H]1C[C@@H]1C)c(=O)n2CC1CCC1`
Result: 0.08

----------
- assay-target: human adenosine A2b receptor (Homo sapiens)
- protocol-details: Cellular in vitro reporter gene test for A2b receptor activity (antagonism of NECA)
- condition-details: recombinant CHO-K1 cells, CRE-luciferase reporter, co-incubation with EC50 concentration of NECA, 3 hours
- Description: The identification of selective antagonists of the human adenosine A2b receptor and the quantification of the efficacy and selectivity of the compounds according to the invention was carried out with the aid of recombinant cell lines for the human adenosine receptors A1, A2a, A2b and A3. These cell lines were originally derived from an ovarepithelial cell of the hamster (Chinese Hamster Ovary, CHO-K1, American Type Culture Collection, Manassas, Va. 20108, USA). […]
Reported pIC50 by item:
Scale explanation: pIC50 corresponds to minus log10 of a concentration expressed in moles per litre.

[[record]]
molecule = "Cc1c(CN2CCNC2=O)sc2c1c(=O)n(C1CC1C)c(=O)n2C[C@H]1CCCO1 (stereo partly shown) [Example 286]"
observed = 7.77

[[record]]
molecule = "Cc1c(Cn2cc[nH]c2=O)sc2c1c(=O)n(C1CC1)c(=O)n2CC1CCCO1 (single isomer, unassigned) [Example 47]"
observed = 6.85


Task: Please list pIC50 recorded for the molecule Cc1c(Cn2nc[nH]c2=O)sc2c1c(=O)n([C@H]1C[C@@H]1C)c(=O)n2CCC(F)(F)F [Example 323]
Result: 8.51

Task: Please list pIC50 recorded for the molecule Cc1c(CN2CCNC2=O)sc2c1c(=O)n(C1CC1C)c(=O)n2CC(F)(F)F (single isomer, unassigned) [Example 239]
Result: 8.33

Task: Please list pIC50 recorded for the molecule COCCn1c(=O)n([C@H]2C[C@H](OC)C2)c(=O)c2c(C)c(CN3CCNC3=NC(=O)OC)sc21 [Example 151]
Result: 7.35

Task: Please list pIC50 recorded for the molecule COCCn1c(=O)n(C2CC2)c(=O)c2c(C)c(CN3CCNC3=O)sc21 [Example 24]
Result: 7.54

Task: Please list pIC50 recorded for the molecule CCCCn1c(=O)n(C2(C)CC2)c(=O)c2c(C)c(CN3CCNC3=O)sc21 [Example 54]
Result: 8.12

Task: Please list pIC50 recorded for the molecule COC(=O)N=C1NCCN1Cc1sc2c(c1C)c(=O)n(C1CC3(CCC3)C1)c(=O)n2CCC(F)(F)F [Example 176]
Result: 8.40

Task: Please list pIC50 recorded for the molecule Cc1c(Cn2[nH]ccc2=O)sc2c1c(=O)n(C1CC1C)c(=O)n2CCOC(F)(F)F (racemic) [Example 273]
Result: 7.17

----------
- assay-target: human adenosine A2b receptor (Homo sapiens)
- protocol-details: Cellular in vitro reporter gene test for A2b receptor activity (antagonism of NECA)
- condition-details: recombinant CHO-K1 cells, CRE-luciferase reporter, co-incubation with EC50 concentration of NECA, 3 hours
measured-metric: log10 of IC50 (log10 of the value in nM)
All values: base-10 log of IC50 in nM.

See these solved cases before continuing.
[[record]]
compound = "COCCn1c(=O)n(C2CC(F)(F)C2)c(=O)c2c(C)c(CN3CCNC(=O)C3=O)sc21"
observed = 1.56

[[record]]
compound = "COCCn1c(=O)n([C@H]2C[C@@H](OC)C2)c(=O)c2c(C)c(CN3CCNC3=NC#N)sc21"
observed = 2.30

[[record]]
compound = "COCCn1c(=O)n(C2CC(C)(C)C2)c(=O)c2c(C)c(CN3CCNC3=NC(=O)OC)sc21"
observed = 1.23

[[record]]
compound = "COCCn1c(=O)n(C2CC2C(F)(F)F)c(=O)c2c(C)c(CN3CCNC3=O)sc21 (racemic) [Example 294]"
observed = 1.30

[[record]]
compound = "Cc1c(Cn2nc[nH]c2=O)sc2c1c(=O)n(C1CC1C)c(=O)n2CCOC(F)(F)F (single isomer, unassigned) [Example 278]"
observed = 0.20

[[record]]
compound = "COCCn1c(=O)n(C2(C)CCC2)c(=O)c2c(C)c(CN3CCNC(=O)C3=O)sc21"
observed = 2.66

[[record]]
compound = "CCn1c(=O)n(C2CC2C)c(=O)c2c(C)c(CN3CCNC3=O)sc21 (racemic) [Example 224]"
observed = 1.04

[[record]]
compound = "Cc1c(Cn2nc[nH]c2=O)sc2c1c(=O)n(C1CC1)c(=O)n2CC1CCC(F)(F)C1 (racemic) [Example 209]"
observed = 2.30


Task: Please list log10 of IC50 recorded for the compound Cc1c(CN2CCNC2=O)sc2c1c(=O)n(C1CC1C)c(=O)n2CCF (racemic) [Example 231]
Result: 0.36

Task: Please list log10 of IC50 recorded for the compound `Cc1c(Cn2[nH]ccc2=O)sc2c1c(=O)n(C1CCC1)c(=O)n2CCC(F)(F)F`
Result: 1.18

Task: Please list log10 of IC50 recorded for the compound Cc1c(CN2CCNC2=O)sc2c1c(=O)n(C1CC1C)c(=O)n2CCF (single isomer, unassigned) [Example 232]
Result: -0.07

Task: Please list log10 of IC50 recorded for the compound Cc1c(Cn2nc[nH]c2=O)sc2c1c(=O)n(C1CC1)c(=O)n2CC1CCC(F)(F)C1 (single isomer, unassigned) [Example 210]
Result: 2.30

Task: Please list log10 of IC50 recorded for the compound `CCc1c(CN2CCNC2=O)sc2c1c(=O)n(C1(C)CC1)c(=O)n2CCOC`
Result: 2.60

Task: Please list log10 of IC50 recorded for the compound Cc1c(CN2CCNC2=O)sc2c1c(=O)n(C1CC1C)c(=O)n2CCC(F)(F)C(F)F (single isomer, unassigned) [Example 247]
Result: 0.54

Task: Please list log10 of IC50 recorded for the compound COCCn1c(=O)n(C2CC2C)c(=O)c2c(C)c(CN3CCNC3=O)sc21 (single isomer, unassigned) [Example 259]
Result: 0.61

Cited source for all entries: patent US20200016159A1
